# study target: membrane fusion caused by SNARE (SNAP25, syntaxin 1A, VAMP2) (UniProt P60879+P63045+Q16623)
# Construct: made in house; host or cells: E. coli (Codon (+) RIL, Novagen)
# Sequence (P60879 whole entry, the tested form may be a part): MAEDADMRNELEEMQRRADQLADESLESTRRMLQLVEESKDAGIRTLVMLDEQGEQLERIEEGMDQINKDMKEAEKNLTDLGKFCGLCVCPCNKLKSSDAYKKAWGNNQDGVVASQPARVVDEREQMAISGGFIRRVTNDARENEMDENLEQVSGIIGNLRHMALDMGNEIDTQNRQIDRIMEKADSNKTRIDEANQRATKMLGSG
# Sequence (Q16623 whole entry, the tested form may be a part): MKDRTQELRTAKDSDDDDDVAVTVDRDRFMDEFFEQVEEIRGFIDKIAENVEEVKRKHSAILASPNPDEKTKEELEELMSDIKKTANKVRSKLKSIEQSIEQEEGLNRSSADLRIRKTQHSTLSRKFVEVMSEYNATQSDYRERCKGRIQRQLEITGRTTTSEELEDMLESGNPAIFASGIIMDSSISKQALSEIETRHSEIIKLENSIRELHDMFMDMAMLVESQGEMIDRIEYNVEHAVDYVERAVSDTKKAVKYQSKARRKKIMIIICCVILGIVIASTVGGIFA
# Sequence (P63045 whole entry, the tested form may be a part): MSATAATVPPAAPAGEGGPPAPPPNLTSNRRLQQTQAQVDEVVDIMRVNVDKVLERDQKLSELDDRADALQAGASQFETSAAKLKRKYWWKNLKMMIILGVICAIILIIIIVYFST
# procedure text: Membrane fusion assay with SNARE-reconstituted liposomes (fluorescence)
# Assay type: biochemical
# condition description: 20 μM phenolic compound; 100% = no inhibitor added; read-out: Membrane fusion caused by SNARE (% of fusion without inhibitor)
recorded metric: remaining activity at 20 µM (%)

{"compound": "O=c1cc(-c2ccccc2)oc2cc(O)cc(O)c12", "recorded metric": "remaining activity at 20 µM", "result unit": "%", "measured": 121}
{"compound": "O=C(O)/C=C/c1ccc(O)c(O)c1", "recorded metric": "remaining activity at 20 µM", "result unit": "%", "measured": 125}
{"compound": "C[C@@H]1O[C@@H](Oc2c(-c3ccc(O)c(O)c3)oc3cc(O)cc(O)c3c2=O)[C@H](O)[C@H](O)[C@H]1O", "recorded metric": "remaining activity at 20 µM", "result unit": "%", "measured": 86}
{"compound": "O=C(CCc1ccc(O)cc1)c1c(O)cc(O)cc1O[C@@H]1O[C@H](CO)[C@@H](O)[C@H](O)[C@H]1O", "recorded metric": "remaining activity at 20 µM", "result unit": "%", "measured": 86.3}
{"compound": "COc1cc(/C=C/C(=O)O)ccc1O", "recorded metric": "remaining activity at 20 µM", "result unit": "%", "measured": 118}
{"compound": "C[C@@H]1O[C@@H](OC[C@H]2O[C@@H](Oc3c(-c4ccc(O)c(O)c4)oc4cc(O)cc(O)c4c3=O)[C@H](O)[C@@H](O)[C@@H]2O)[C@H](O)[C@H](O)[C@H]1O", "recorded metric": "remaining activity at 20 µM", "result unit": "%", "measured": 96.7}
{"compound": "O=c1c(O)c(-c2ccc(O)cc2)oc2cc(O)cc(O)c12", "recorded metric": "remaining activity at 20 µM", "result unit": "%", "measured": 108}
{"compound": "O=c1c(O)c(-c2ccc(O)c(O)c2)oc2cc(O)ccc12", "recorded metric": "remaining activity at 20 µM", "result unit": "%", "measured": 32.1}
{"compound": "O=C(/C=C/c1ccc(O)c(O)c1)c1ccc(O)cc1O", "recorded metric": "remaining activity at 20 µM", "result unit": "%", "measured": 16.9}
{"compound": "O=c1c(O)c(-c2cc(O)c(O)c(O)c2)oc2cc(O)cc(O)c12", "recorded metric": "remaining activity at 20 µM", "result unit": "%", "measured": 43.9}
{"compound": "COc1cc(C(=O)O)cc(OC)c1O", "recorded metric": "remaining activity at 20 µM", "result unit": "%", "measured": 78.2}
{"compound": "O=c1cc(-c2ccc(O)cc2)oc2cc(O)cc(O)c12", "recorded metric": "remaining activity at 20 µM", "result unit": "%", "measured": 96.9}
{"compound": "O=C(O)/C=C/c1ccccc1 [Trans-cinnamic acid]", "recorded metric": "remaining activity at 20 µM", "result unit": "%", "measured": 108}
{"compound": "COc1cc(C(=O)O)ccc1O", "recorded metric": "remaining activity at 20 µM", "result unit": "%", "measured": 99.6}

* * *

# study target: SNARE complex (SNAP25, SynH3, Vps) (UniProt P60879+P63045+Q16623)
# Construct: SynH3 (AF217197); Vps (NM012663); made in house; host or cells: E. coli (Codon (+) RIL, Novagen)
# Sequence (P60879 whole entry): as the sequence (P60879 whole entry, the tested form may be a part) above
# Sequence (Q16623 192-254 limits assumed): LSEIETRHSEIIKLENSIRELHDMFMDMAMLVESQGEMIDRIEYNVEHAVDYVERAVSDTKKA
# Sequence (P63045 2-94 limits assumed): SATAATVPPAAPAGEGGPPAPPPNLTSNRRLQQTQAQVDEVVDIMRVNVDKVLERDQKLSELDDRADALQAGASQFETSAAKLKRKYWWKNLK
# procedure text: SDS-PAGE analysis of SNARE complex formation
# Format: biochemical
# condition description: control = 100; footnote: [phenolic compound]:SNAP-25 = 1:1, SNARE proteins 10 μM each; polyphenol 100 μM; room temperature 30 min
recorded metric: SNARE complex formation (%)

{"compound": "C[C@@H]1O[C@@H](Oc2c(-c3ccc(O)c(O)c3)oc3cc(O)cc(O)c3c2=O)[C@H](O)[C@H](O)[C@H]1O", "recorded metric": "SNARE complex formation (%)", "measured": 92.18}
{"compound": "O=C(/C=C/c1ccc(O)c(O)c1)O[C@@H]1C[C@](O)(C(=O)O)C[C@@H](O)[C@H]1O", "recorded metric": "SNARE complex formation (%)", "measured": 100.78}
{"compound": "COc1cc(/C=C/C(=O)O)ccc1O", "recorded metric": "SNARE complex formation (%)", "measured": 93.38}
{"compound": "COc1cc2c(c(OC)c1OC)-c1c(cc3c(c1OC)OCO3)C[C@H](C)[C@H](C)C2", "recorded metric": "SNARE complex formation (%)", "measured": 99.04}
{"compound": "O=c1oc2c(O)c(O)cc3c(=O)oc4c(O)c(O)cc1c4c23", "recorded metric": "SNARE complex formation (%)", "measured": 87.54}
{"compound": "O=C(O)/C=C/c1ccc(O)cc1", "recorded metric": "SNARE complex formation (%)", "measured": 91.21}
{"compound": "O=C(O)c1ccc(O)c(O)c1", "recorded metric": "SNARE complex formation (%)", "measured": 98.38}
{"compound": "C[C@@H]1O[C@@H](O[C@H]2[C@H](Oc3cc(O)c4c(c3)O[C@H](c3ccc(O)cc3)CC4=O)O[C@H](CO)[C@@H](O)[C@@H]2O)[C@H](O)[C@H](O)[C@H]1O", "recorded metric": "SNARE complex formation (%)", "measured": 105.02}
{"compound": "Oc1cc(O)c2cc(O)c(-c3cc(O)c(O)c(O)c3)[o+]c2c1", "recorded metric": "SNARE complex formation (%)", "measured": 60.53}
{"compound": "O=C(CCc1ccc(O)cc1)c1c(O)cc(O)cc1O[C@@H]1O[C@H](CO)[C@@H](O)[C@H](O)[C@H]1O", "recorded metric": "SNARE complex formation (%)", "measured": 115.19}
{"compound": "O=c1c(O)c(-c2ccc(O)c(O)c2)oc2cc(O)cc(O)c12", "recorded metric": "SNARE complex formation (%)", "measured": 79.80}
{"compound": "COc1cc(C(=O)O)ccc1O", "recorded metric": "SNARE complex formation (%)", "measured": 97.23}
{"compound": "C[C@@H]1O[C@@H](OC[C@H]2O[C@@H](Oc3c(-c4ccc(O)c(O)c4)oc4cc(O)cc(O)c4c3=O)[C@H](O)[C@@H](O)[C@@H]2O)[C@H](O)[C@H](O)[C@H]1O", "recorded metric": "SNARE complex formation (%)", "measured": 92.86}
{"compound": "O=C(/C=C/c1ccc(O)c(O)c1)c1ccc(O)cc1O", "recorded metric": "SNARE complex formation (%)", "measured": 88.45}
{"compound": "COc1cc2c(c(OC)c1OC)-c1c(cc3c(c1OC)OCO3)C[C@H](C)[C@](C)(O)C2", "recorded metric": "SNARE complex formation (%)", "measured": 97.99}
{"compound": "Oc1cc(O)c2cc(O)c(-c3ccc(O)c(O)c3)[o+]c2c1", "recorded metric": "SNARE complex formation (%)", "measured": 67.12}
{"compound": "COc1cc(-c2[o+]c3cc(O)cc(O)c3cc2O)cc(OC)c1O", "recorded metric": "SNARE complex formation (%)", "measured": 97.42}
{"compound": "Oc1ccc(-c2[o+]c3cc(O)cc(O)c3cc2O)cc1", "recorded metric": "SNARE complex formation (%)", "measured": 95.61}
{"compound": "O=c1c(-c2ccc(O)cc2)coc2cc(O)ccc12", "recorded metric": "SNARE complex formation (%)", "measured": 104.06}
{"compound": "COc1ccc([C@@H]2CC(=O)c3c(O)cc(O)cc3O2)cc1O", "recorded metric": "SNARE complex formation (%)", "measured": 114.55}
{"compound": "Oc1cc(O)c2c(c1)O[C@H](c1ccc(O)c(O)c1)[C@H](O)C2 [(−)-Epicatechin]", "recorded metric": "SNARE complex formation (%)", "measured": 114.55}
{"compound": "O=c1c(O)c(-c2ccc(O)cc2)oc2cc(O)cc(O)c12", "recorded metric": "SNARE complex formation (%)", "measured": 100.13}
{"compound": "O=C(O)/C=C/c1ccc(O)c(O)c1", "recorded metric": "SNARE complex formation (%)", "measured": 93.33}
{"compound": "O=C(O)/C=C/c1ccccc1 [Trans-cinnamic acid]", "recorded metric": "SNARE complex formation (%)", "measured": 106.78}
{"compound": "O=c1cc(-c2ccc(O)c(O)c2)oc2cc(O)cc(O)c12", "recorded metric": "SNARE complex formation (%)", "measured": 86.23}
{"compound": "COc1cc2c(c(OC)c1OC)-c1c(cc(OC)c(OC)c1OC)C[C@](C)(O)[C@@H](C)C2", "recorded metric": "SNARE complex formation (%)", "measured": 107.60}
{"compound": "O=c1cc(-c2ccc(O)cc2)oc2cc(O)cc(O)c12", "recorded metric": "SNARE complex formation (%)", "measured": 96.94}
{"compound": "COc1cc(C(=O)O)cc(OC)c1O", "recorded metric": "SNARE complex formation (%)", "measured": 92.25}
{"compound": "Oc1cc(O)c2c(c1)O[C@H](c1ccc(O)c(O)c1)[C@@H](O)C2 [(+)-Catechin]", "recorded metric": "SNARE complex formation (%)", "measured": 105.02}
{"compound": "O=c1c(O)c(-c2cc(O)c(O)c(O)c2)oc2cc(O)cc(O)c12", "recorded metric": "SNARE complex formation (%)", "measured": 72.13}
{"compound": "O=c1c(-c2ccc(O)cc2)coc2cc(O)cc(O)c12", "recorded metric": "SNARE complex formation (%)", "measured": 96.76}
{"compound": "O=C(O)c1cc(O)ccc1O", "recorded metric": "SNARE complex formation (%)", "measured": 100.16}
{"compound": "O=c1cc(-c2ccccc2)oc2cc(O)cc(O)c12", "recorded metric": "SNARE complex formation (%)", "measured": 98.12}
{"compound": "O=c1c(O)c(-c2ccc(O)c(O)c2)oc2cc(O)ccc12", "recorded metric": "SNARE complex formation (%)", "measured": 90.14}
{"compound": "COc1ccc([C@@H]2CC(=O)c3c(O)cc(O[C@@H]4O[C@H](CO[C@@H]5O[C@@H](C)[C@H](O)[C@@H](O)[C@H]5O)[C@@H](O)[C@H](O)[C@H]4O)cc3O2)cc1O", "recorded metric": "SNARE complex formation (%)", "measured": 112.38}
{"compound": "O=C(O[C@@H]1Cc2c(O)cc(O)cc2O[C@@H]1c1cc(O)c(O)c(O)c1)c1cc(O)c(O)c(O)c1 [EGCG, Epigallocatechin gallate]", "recorded metric": "SNARE complex formation (%)", "measured": 112.38}
